Origin of values: paper PMC8016129

Could you please report measured kcat/Km for the items listed next?
# Substrate: CCCCCCCCCCCCCCCCOC[C@@H](O)COP(=O)([O-])OCC[N+](C)(C)C
# protocol.details: released choline by choline oxidase/peroxidase colorimetric assay, Michaelis-Menten fit
# Format: biochemical, Thermocrispum sp. RD004668
# condition.parameters: pH 8.0, 50 °C, 1 min, 2 mM CaCl2, substrate micelles
Answers are plain numbers, in M⁻¹ s⁻¹.

[
  {
    "protein": "LyPls-PLD (lysoplasmalogen-specific phospholipase D) (Thermocrispum sp. RD004668; F211C) (protein, recombinant from pET24/lpls-pld in E. coli BL21(DE3); purified on HisTrap HP) TTRTTDNPWLDARVLNMAHAGGENEAPANTLYAFKRAVKLGANMLELDVQSTKDDQLVVIHNATVDQTTDGTGKVRDLTFEQVHELDAAYNFIPGRHAVPGEPPESYPLRGVRTGEKKPPPGYQPSDFAIPKLADVLEAFPRTPINIEIKGTSDADIPSFLHNAKLLARLLKKTGRTDFIVTSCNDLAVAKFHLLAPDIPIAPGMAGLAAYFLLGVKPMHGTVALQIPVRYQGLEIATPEFIRRAHADGYAVHVWFSGTAPDDEATYNRIIDSCADGLMPAYPALLERILDERGIERPGRPGVDPCG",
    "uom": "M⁻¹ s⁻¹",
    "kcat/Km": "3.96e+06"
  }
]

For the next question, use this protein.
For reference, reported kcat/Km for LyPls-PLD (lysoplasmalogen-specific phospholipase D) (Thermocrispum sp. RD004668) (protein, recombinant from pET24/lpls-pld in E. coli BL21(DE3); purified on HisTrap HP) TTRTTDNPWLDARVLNMAHAGGENEAPANTLYAFKRAVKLGANMLELDVQSTKDDQLVVIHNATVDQTTDGTGKVRDLTFEQVHELDAAYNFIPGRHAVPGEPPESYPLRGVRTGEKKPPPGYQPSDFAIPKLADVLEAFPRTPINIEIKGTSDADIPSFLHNAKLLARLLKKTGRTDFIVTSFNDLAVAKFHLLAPDIPIAPGMAGLAAYFLLGVKPMHGTVALQIPVRYQGLEIATPEFIRRAHADGYAVHVWFSGTAPDDEATYNRIIDSCADGLMPAYPALLERILDERGIERPGRPGVDPCG stands at 1.3e+06
